Type: physicochemical
particulars: HPLC on reversed phase columns, method [a]: pH 2.7, 0.1% formic acid in water / acetonitrile, linear gradient 10% to 95% acetonitrile
Some molecules, each annotated with its measured log P.

Lookup: Record request: log P value, item CC(=O)C1(C(=O)NCc2cnc(C)cn2)CC(c2ccc3ncc(Br)cc3c2)=NO1 (centres unmarked)
Found: 2.37[a]

Lookup: Record request: log P value, item CCNC(=O)C1(C)CC(c2ccc3ncc(Br)cc3c2)=NO1 (centres unmarked)
Found: 2.39[a]

Lookup: Record request: log P value, item CC1(C(=O)NC2CC2)CC(c2ccc3ncc(Br)cc3c2)=NO1 (centres unmarked)
Found: 2.40[a]

Lookup: Record request: log P value, item CCC(NC(=O)C1(C)CC(c2ccc3ncc(Br)cc3c2)=NO1)c1cn(CC)nc1C (centres unmarked)
Found: 2.77[a]

Lookup: Record request: log P value, item O=C(NC1CC1)C1(C2CC2)CC(c2ccc3ncc(Br)cc3c2)=NO1 (centres unmarked)
Found: 2.88[a]

Lookup: Record request: log P value, item CC1(C(=O)NCc2cnn(CC(F)F)c2)CC(c2ccc3ncc(Br)cc3c2)=NO1 (centres unmarked)
Found: 2.42[a]

Lookup: Record request: log P value, item C#Cc1cnc2ccc(C3=NOC(C)(C(=O)NCc4ccc(OC)cn4)C3)cc2c1 (centres unmarked)
Found: 1.96[a]

Lookup: Record request: log P value, item C#Cc1cnc2ccc(C3=NOC(C)(C(=O)NCc4csc5ccc(Cl)cc45)C3)cc2c1 (centres unmarked)
Found: 3.74^[a]

* * *

Tested on: Botrytis cinerea
assay: In vivo preventive test on Botrytis cinerea (grey mould)
particulars: 500 ppm; gherkin plants sprayed 24 hours before contamination; grading 4-5 days after contamination vs control plants
Some molecules, each annotated with its measured % of efficacy (protection).
Report as: number unit

- C#Cc1cnc2c(C)cc(C3=NOC(C)(C(=O)NCC4COC(C)(C)O4)C3)cc2c1 (centres unmarked): 100%
- C#Cc1cnc2ccc(C3=NOC(C)(C(=O)NCC4OCCc5ccccc54)C3)cc2c1 (single isomer, unassigned): 95%
- CC(C)n1cc(CNC(=O)C2(C)CC(c3ccc4ncc(Br)cc4c3)=NO2)cn1 (centres unmarked): 99%
- CC(C)NC(=O)C1(C)CC(c2ccc3ncc(Br)cc3c2)=NO1 (centres unmarked): 93%
- C#Cc1cnc2ccc(C3=NOC(OC)(C(=O)N(O)C(C)C)C3)cc2c1 (centres unmarked): 100%
- C#Cc1cnc2ccc(C3=NOC(C)(C(=O)NCc4ccc5ncccc5c4)C3)cc2c1 (centres unmarked): 92%

Lookup: Record request: % of efficacy (protection) value, item CCn1cc(CNC(=O)C2(C(F)F)CC(c3ccc4ncc(Br)cc4c3)=NO2)c(C)n1 (centres unmarked)
Found: 83%

Lookup: Record request: % of efficacy (protection) value, item COC1(C(=O)NC2CCC2)CC(c2ccc3ncc(I)cc3c2)=NO1 (centres unmarked)
Found: 100%

Lookup: Record request: % of efficacy (protection) value, item C#Cc1cnc2ccc(C3=NOC(C(=O)NCC4COC(C)(C)O4)(C(F)F)C3)cc2c1 (centres unmarked)
Found: 100%

Lookup: Record request: % of efficacy (protection) value, item CC1(C(=O)NCC2CCCO2)CC(c2ccc3ncc(Br)cc3c2)=NO1 (centres unmarked)
Found: 89%

Lookup: Record request: % of efficacy (protection) value, item COC1(C(=O)NC2CCC2)CC(c2ccc3ncc(Br)cc3c2)=NO1 (centres unmarked)
Found: 100%

Lookup: Record request: % of efficacy (protection) value, item CCn1cc(CNC(=O)C2(C(F)F)CC(c3ccc4ncc(I)cc4c3)=NO2)c(C)n1 (centres unmarked)
Found: 95%

Lookup: Record request: % of efficacy (protection) value, item C#Cc1cnc2ccc(C3=NOC(C)(C(=O)NCc4ccco4)C3)cc2c1 (centres unmarked)
Found: 71%

Lookup: Record request: % of efficacy (protection) value, item Cc1cnc(CNC(=O)C2(C)CC(c3cc(C)c4ncc(Br)cc4c3)=NO2)cn1 (centres unmarked)
Found: 100%

Lookup: Record request: % of efficacy (protection) value, item C#Cc1cnc2ccc(C3=NOC(C)(C(=O)NCc4cncn4C)C3)cc2c1 (centres unmarked)
Found: 100%

Lookup: Record request: % of efficacy (protection) value, item CNC(=O)C1(C)CC(c2ccc3ncc(Br)cc3c2)=NO1 (centres unmarked)
Found: 100%

Lookup: Record request: % of efficacy (protection) value, item CCCn1cc(CNC(=O)C2(C)CC(c3ccc4ncc(Br)cc4c3)=NO2)c(C)n1 (centres unmarked)
Found: 100%

* * *

Assay type: physicochemical
particulars: method [a]: HPLC/LC-MS on reversed phase at pH 2.7, 0.1% formic acid in water / acetonitrile, linear gradient 10% to 95% acetonitrile
recorded-endpoint: log P

- Cc1nn(C)c(C)c1CNC(=O)C1(C)CC(c2ccc3ncc(Br)cc3c2)=NO1 (centres unmarked): 2.13^[a]

Lookup: Record request: log P value, item CCCCC1(C(=O)NC(C)C)CC(c2ccc3ncc(Br)cc3c2)=NO1 (centres unmarked)
Found: 4.01^[a]

Lookup: Record request: log P value, item CC(C)NC(=O)C1(c2ccccc2)CC(c2ccc3ncc(Br)cc3c2)=NO1 (centres unmarked)
Found: 3.78^[a]

Lookup: Record request: log P value, item CCOCCCNC(=O)C1(C(C)C)CC(c2ccc3ncc(Br)cc3c2)=NO1 (centres unmarked)
Found: 3.46^[a]

Lookup: Record request: log P value, item C#Cc1cnc2ccc(C3=NOC(C)(C(=O)NCc4ncc(C(F)(F)F)cc4Cl)C3)cc2c1 (centres unmarked)
Found: 3.48^[a]

Lookup: Record request: log P value, item C#Cc1cnc2ccc(C3=NOC(C)(C(=O)NCc4cnn(-c5ccccc5)c4)C3)cc2c1 (centres unmarked)
Found: 2.78^[a]

Lookup: Record request: log P value, item CC1(C(=O)NCc2ncc(C(F)(F)F)cc2Cl)CC(c2ccc3ncc(Br)cc3c2)=NO1 (centres unmarked)
Found: 3.89^[a]

* * *

Some molecules, each annotated with its measured log P.
Assay type: physicochemical
particulars: HPLC on reversed phase columns, method [a]: pH 2.7, 0.1% formic acid in water / acetonitrile, linear gradient 10% to 95% acetonitrile

A selection of reference data follows.
• C#Cc1cnc2c(C)cc(C3=NOC(C)(C(=O)NCCCOCC)C3)cc2c1 (racemic) = 3.04[a]
• C#Cc1cnc2ccc(C3=NOC(C)(C(=O)NC(C)(C)c4nc(C)cs4)C3)cc2c1 (stereo not drawn) = 2.92[a]
• C#Cc1cnc2ccc(C3=NOC(C)(C(=O)NC(CC)c4cn(CC)nc4C)C3)cc2c1 (stereo not drawn) = 2.52[a]
• C#Cc1cnc2ccc(C3=NOC(C)(C(=O)NCc4cn(CC)nc4SC)C3)cc2c1 (stereo not drawn) = 2.51[a]
• COc1nc2ccc(C3=NOC(C)(C(=O)NC(C)C)C3)cc2cc1Br (stereo not drawn) = 3.54[a]
• C#Cc1cnc2ccc(C3=NOC(C)(C(=O)NC(C)c4ccc(Cl)cc4)C3)cc2c1 (stereo not drawn) = 3.44[a]
• Cc1cc(C)nc(CNC(=O)C2(C)CC(c3ccc4ncc(Br)cc4c3)=NO2)n1 (stereo not drawn) = 2.51[a]
• C#Cc1cnc2c(C)cc(C3=NOC(OC)(C(=O)NC(C)C)C3)cc2c1 (stereo not drawn) = 2.94[a]
• C#Cc1cnc2ccc(C3=NOC(C)(C(=O)NCC4C5CC6CC(C5)CC4C6)C3)cc2c1 (stereo not drawn) = 4.46^[a]
• C#Cc1cnc2ccc(C3=NOC(C)(C(=O)NC(C)C(F)(F)F)C3)cc2c1 (stereo not drawn) = 2.77[a]

Lookup: Record request: log P value, item CC1(C(=O)NCc2ccncn2)CC(c2ccc3ncc(Br)cc3c2)=NO1 (stereo not drawn)
Found: 2.01[a]

Lookup: Record request: log P value, item C#Cc1cnc2c(C)cc(C3=NOC(OC)(C(=O)NCc4cn(CC)nc4C)C3)cc2c1 (stereo not drawn)
Found: 2.62[a]

Lookup: Record request: log P value, item CCn1cc(CNC(=O)C2(C(F)F)CC(c3ccc4ncc(I)cc4c3)=NO2)c(C)n1 (stereo not drawn)
Found: 2.73[a]

Lookup: Record request: log P value, item C#Cc1cnc2ccc(C3=NOC(C)(C(=O)NC(C)c4ccncc4)C3)cc2c1 (stereo not drawn)
Found: 1.28[a]

Lookup: Record request: log P value, item C#Cc1cnc2c(Cl)cc(C3=NOC(C)(C(=O)NCC4COC(C)(C)O4)C3)cc2c1 (stereo not drawn)
Found: 2.84[a]

Lookup: Record request: log P value, item C#Cc1cnc2ccc(C3=NOC(C)(C(=O)NCc4cn(CC)nc4Br)C3)cc2c1 (stereo not drawn)
Found: 2.56[a]

Lookup: Record request: log P value, item Cc1csc(CNC(=O)C2(C)CC(c3ccc4ncc(Br)cc4c3)=NO2)n1 (stereo not drawn)
Found: 2.56[a]

Lookup: Record request: log P value, item CC(NC(=O)C1(C)CC(c2ccc3ncc(Br)cc3c2)=NO1)c1nn(C)c(=O)n1C (stereo not drawn)
Found: 1.99[a]

Lookup: Record request: log P value, item CCn1cc(CNC(=O)C2(C(F)F)CC(c3ccc4ncc(Br)cc4c3)=NO2)c(C)n1 (stereo not drawn)
Found: 2.64[a]

Lookup: Record request: log P value, item C#Cc1cnc2ccc(C3=NOC(C)(C(=O)NCc4ccncc4OC)C3)cc2c1 (stereo not drawn)
Found: 1.40[a]

Lookup: Record request: log P value, item CC(NC(=O)C1(C)CC(c2ccc3ncc(Br)cc3c2)=NO1)c1ccc(OC(F)(F)F)cc1 (stereo not drawn)
Found: 4.16[a]

Lookup: Record request: log P value, item Cc1cc(C2=NOC(C)(C(=O)NC(C)C)C2)cc2cc(Br)cnc12 (stereo not drawn)
Found: 3.51[a]

Lookup: Record request: log P value, item CC1(C(=O)NC2CCC2)CC(c2cc(Cl)c3ncc(Br)cc3c2)=NO1 (stereo not drawn)
Found: 3.48[a]

Lookup: Record request: log P value, item CNC(=O)C1(C)CC(c2ccc3ncc(Br)cc3c2)=NO1 (stereo not drawn)
Found: 2.07[a]

Lookup: Record request: log P value, item Cc1nn(C2CC2)cc1CNC(=O)C1(C)CC(c2ccc3ncc(Br)cc3c2)=NO1 (stereo not drawn)
Found: 2.52[a]

Lookup: Record request: log P value, item C#Cc1cnc2c(C)cc(C3=NOC(OC)(C(=O)NCc4cnc(C)cn4)C3)cc2c1 (stereo not drawn)
Found: 2.46[a]

Lookup: Record request: log P value, item CCn1cc(CNC(=O)C2(SC)CC(c3ccc4ncc(Br)cc4c3)=NO2)c(C)n1 (stereo not drawn)
Found: 2.51[a]

Lookup: Record request: log P value, item CCn1cc(CNC(=O)C2(C)CC(c3ccc4ncc(-c5cncnc5)cc4c3)=NO2)c(C)n1 (stereo not drawn)
Found: 1.62^[a]

Lookup: Record request: log P value, item C#Cc1cnc2c(Cl)cc(C3=NOC(C)(C(=O)NC4CCC4)C3)cc2c1 (stereo not drawn)
Found: 3.15[a]

Where do the numbers come from? From patent US9510598B2.
